# EXPERIMENTAL_SYSTEM: Human A2a Adenosine Receptor (Homo sapiens)
# Construct: purchased Receptor Biology, Inc., Beltsville, Md; RB-HA2a
# Sequence (P29274 whole entry): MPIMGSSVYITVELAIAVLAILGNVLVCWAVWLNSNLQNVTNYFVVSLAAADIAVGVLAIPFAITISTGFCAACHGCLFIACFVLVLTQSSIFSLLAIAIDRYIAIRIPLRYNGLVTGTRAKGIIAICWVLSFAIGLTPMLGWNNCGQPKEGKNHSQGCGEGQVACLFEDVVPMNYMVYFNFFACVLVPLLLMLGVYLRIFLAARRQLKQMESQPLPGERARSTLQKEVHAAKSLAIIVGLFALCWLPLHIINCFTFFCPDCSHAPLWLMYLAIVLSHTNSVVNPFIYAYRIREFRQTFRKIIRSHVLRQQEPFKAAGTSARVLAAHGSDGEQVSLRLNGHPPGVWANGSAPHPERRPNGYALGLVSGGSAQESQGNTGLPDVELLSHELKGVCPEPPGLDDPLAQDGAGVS
# ASSAY_REMARKS: Human adenosine A2a receptor competition binding assay
# CONDITION_NOTES: [3H]-SCH 58261 displacement, human A2a membranes
OBSERVABLE: Ki (nM)
Provide only the numeric value, understood in nM.

Q. Quick check: Ki of Cc1nc(-c2ccc(F)c(N3CCN(CCn4ncc5c4nc(N)n4nc(-c6cnccn6)nc54)CC3)c2)co1 ?
A. 0.2
